Examples of molecules with documented melting point follow.

Below, 3 molecules whose answers are already recorded.
# molecule, value-reported
rows = [
    ("Cc1cccc(C2=CCN(c3ccc(Cl)nn3)CC2)c1", "122 °C"),
    ("CC(C)C1(C)CC(=O)CC(C)(C)N1OC(C)(C)C#N (stereo not given)", "32 to 44 °C"),
    ("O=C(CCCl)Nc1cccc2c1C(=O)c1c(NC(=O)CCCl)cccc1C2=O", "248 to 249 °C"),
]

Given the entry Cc1ccc(C(=O)Nc2nc(=O)n(C)cc2F)cc1 , report its measured melting point.
229 to 230 °C

Reported melting point, molecule CC1=Nc2ccccc2N(Cc2ccccc2)C(=O)C1C/C=C/c1ccccc1 (stereo not given) : ____
152 to 154 °C

Value lookup for melting point; key = CCC1(CC)CN(C(C)(C)C)C(=O)C(C)(CC)N1OC(C)(C)C#N (stereo not given)
78 to 80 °C

Need melting point, item CN(C)CC#CC1=Cc2ccccc2Sc2ccc(Cl)cc21
118 to 120 °C

May I ask what melting point has been recorded for O=C(NCC12CC3CC(CC(C3)C1)C2)c1c(Cl)ccc2nc(N3CCC(C(=O)NO)CC3)ccc12 ?
189 to 196 °C

Quick one: melting point of CCOC(=O)c1cc(CC)sc1Nc1ccc(Cl)cc1[N+](=O)[O-] ?
75 to 76.5 °C

So what's the measured melting point for this one? CSC(SC)=C(C#N)C(=O)c1cc(C)ccc1C
74.5 to 75.5 °C

====

measured-endpoint: melting point

# compound, value-reported
rows = [
    ("O=C(Nc1ccc2[nH]c(=O)[nH]c2c1)C(=O)N1CCC(Cc2ccc(Cl)cc2)CC1", "299 to 300 °C"),
    ("O=C(O)C1CSC(C2CC3C=CC2C3)N1 (mixture of isomers)", "220 °C"),
    ("Nc1nc(-n2cc(C(=O)O)c(=O)c3cc(F)c(N4CC(O)C4)c(Cl)c32)c(F)cc1F", "235 to 238 °C"),
    ("Cc1ccc(C(=O)Nc2ccccc2)cc1NC(=O)c1cc(Cl)cc(Cl)c1", "202 to 205 °C"),
    ("N#CCc1nc(C(F)(F)F)ccc1C(=O)O", "152 to 153 °C"),
    ("N=C(NCc1ccccn1)NN=Cc1c(Cl)cccc1Cl", "125 to 140 °C"),
    ("Cc1cc2c(c3ccc(=O)[nH]c13)OC(CC(=O)[C@@H](C)N)C2 (stereo partly specified)", "222 to 225 °C"),
    ("O=CN1CCN(c2ccc3cc(F)ccc3n2)CC1", "110 to 111 °C"),
]

Which melting point value belongs to O=C(O)c1ccc(-c2cc([N+](=O)[O-])ccc2F)cc1 ?
> 280 °C

Sample CN(C)c1ccccc1SCc1noc(CSc2ccc(Br)cc2)n1 — what was its melting point?
78 °C

Quick one: melting point of O=CC(=Cc1ccccc1Cl)C(C=O)=Cc1ccccc1Cl ?
177 to 178 °C

So what does the record say about melting point for CCC(C)NC1=NS(=O)(=O)c2ccc(Cl)cc2N1 (stereo unspecified) ?
242 to 245 °C

====

Below, each entry is listed alongside its reported melting point.

# molecule, melting point
measured = [
    ("COc1cc(C(=O)C(=O)N2C3CCCC2C(=O)N(CCCCc2ccccc2)C3=O)cc(OC)c1OC", "101 to 103 °C"),
    ("COC(=O)C(c1ccccc1)c1cn[nH]c1 (racemic)", "100 to 103 °C"),
    ("Cc1nc2c(OCc3c(Cl)ccc(N(C)C(=O)CO)c3Cl)cccn2c1Br", "217 to 218 °C"),
    ("CCCCS(=O)(=O)N1C(SCc2ccc(OC)cc2)=NC(C)(c2cccc([N+](=O)[O-])c2)C(C)(C(=O)OCC)C1c1cccc([N+](=O)[O-])c1 (stereo not given)", "66 to 68 °C"),
    ("Cc1cc(Cl)c(C(=O)c2ccccc2)c(Cl)c1", "75.5 to 76.5 °C"),
]

Data request, read-out melting point, for CC(=Nc1ccccc1C(C)C)Nc1ccccc1C(C)C
94 to 96 °C

// returns reported melting point for input O=CC1C(=O)CCC(c2ccccc2)(c2ccccc2)C1C[N+](=O)[O-] (stereo not given)
188 °C

Record request: melting point value, item CC(/C=C/C=C(\C)C1=Cc2cc(C(F)(F)F)ccc2OC1)=C\C(=O)O
245 to 246 °C

I'd like to know its melting point. The molecule in question is Fc1ccc(Nc2nc(N/N=C/c3ccc4ccccc4c3)nc(N3CCOCC3)n2)cc1
225 to 226 °C

Looking for the measured melting point of CC(CF)(CF)C(=O)NC(CO)c1ccc(C(C)(C)C)cc1 (stereo not given) , can you help?
141 °C

Query: melting point; subject: COc1cc(OC)c(S(C)(=O)=O)cc1C(=O)NCC1CCCN1C1CCCC1 (stereo not given)
198 °C

Please report the recorded melting point for CCOC(=O)c1oc2ccc(Cl)cc2c1CN(C)CC(OC)OC .
58 to 60 °C

What value of measured melting point is listed for CS(=O)(=O)N[C@H]1CC[C@H](CCN2CCC(c3cccc4c3CCO4)CC2)CC1 ?
152 °C

====

Below: a set of entries, each annotated with reported melting point.

# annotated cases, reported melting point shown
# molecule, melting point
data = [
    ("Nc1c(Cl)cnc(OCCO)c1Cl", "77.5 to 81 °C"),
    ("O=C(Nc1ncc(Br)cn1)c1ccccc1SSc1ccccc1C(=O)Nc1ncc(Br)cn1", "249 to 253 °C"),
]

Which melting point is reported for this molecule? CC(C)(CO)C(O)(Cn1cncn1)c1ccc(F)cc1F (single isomer, unassigned; (+))
116 to 118 °C

Need melting point of O=C(O)Cc1c(C(=O)O)c2cc(Oc3ccc(C(F)(F)F)cc3)ccc2n1-c1ccc(N2CCOCC2)cc1 , thanks.
257 to 259 °C

What value of measured melting point is listed for O=S(=O)(c1ccccc1)c1ncc(Br)cn1 ?
103 °C

====

measured-endpoint: melting point

# compound, melting point
rows = [
    ("CCN1C(=O)Cc2cc3c(cc21)C(O)CO3 (stereo not given)", "144 to 145 °C"),
    ("CCOC(=O)C(C(=O)OCC)C(CC#N)c1ccc(CC)cc1 (stereo not given)", "157 to 159 °C"),
    ("Cc1c(NC(=O)CC(C)(C)C)c(C)c2c(c1-c1ccccn1)OCC2c1ccc(C(C)C)cc1 (stereo not given)", "198 to 200 °C"),
]

Using the record for COc1cc(CCCC2OC(=O)NC2=O)ccc1OCc1csc(CCc2ccccc2)n1 (stereo not given) , report its melting point.
136 to 137 °C

Name the recorded melting point for c1ccc2c(SCc3ccncc3)ncnc2c1 .
117 to 118 °C

====

measured-endpoint: melting point

Some solved entries appear below for comparison.
# molecule, measured-endpoint, value-reported
data = [
    ("CC1=C(C(=O)OC(C)C)C(c2cccc([N+](=O)[O-])c2)N(C(N)=O)C(=O)N1 (stereo not given)", "melting point", "160 to 161 °C"),
    ("CCCc1cccc(N(CC(=O)OC)NC(=O)NC)c1", "melting point", "76 to 77 °C"),
    ("Cc1c(Cc2cccc(C(F)(F)F)c2)oc2c(-c3cccc(C(=O)NCCS(C)=O)c3)cccc12 (stereo not given)", "melting point", "146 to 147 °C"),
    ("COc1ccc([N+](=O)[O-])c(Nc2ccccc2O)n1", "melting point", "206 to 207 °C"),
    ("CN1C(=O)C(NC(=O)Nc2cccc(Br)c2)N(C)C1=O (stereo not given)", "melting point", "173 to 182 °C"),
]

I am curious: what melting point value has been reported for Cc1cccc(CCCCCCCCC(=O)Cl)c1 ?
96 to 98 °C

Could you tell me which melting point is on file for COc1ccc(CNC(=O)c2ccccc2)cc1OC ?
101 to 102 °C

====

# melting point listing for each entry below

# annotated cases, reported melting point shown
# molecule, melting point
records = [
    ("CCOC(=O)C1=CC(C2CC2)c2c(ccc(-c3cc4c(s3)C(O)CCC4)c2OC)C1=O (stereo not given)", "183 to 185 °C"),
    ("CCOC(=O)C(=O)Nc1cc(OC)ccc1[N+](=O)[O-]", "158 °C"),
    ("CCOC(=O)N1CCN(C(=O)OC2c3ccccc3C(=O)N2c2ccc(Cl)cn2)CC1 (stereo not given)", "160 °C"),
]

Consider the molecule shown here: Cc1ccc2c(c1)N(C(=O)CN(C)C)c1ccccc1S(=O)(=O)N2C What is its recorded melting point?
135 to 137 °C

Given the entry O=C(O)Cn1cc(Cc2nc3c(F)c(F)cc(F)c3s2)c2cccc(Br)c21 , report its measured melting point.
228 to 230 °C

Which melting point is listed for CCOC(=O)Cc1cccc2c(=O)cc(C3=CCCCC3)oc12 ?
126 to 127 °C

Which value of melting point has been reported for CCNc1c(C(=O)OCC)c(C)nc2scnc12 in the records?
53 to 54 °C

Look up melting point for this molecule: O=C1C2=C(NCCC2)N(c2ccccc2)C2=NCCN12
248 to 250 °C

I have this molecule here, COc1ccc(S(=O)(=O)c2ccc(NC(=O)NC34CC5CC(CC(C5)C3)C4)cc2)nn1 , and I need its recorded melting point.
252 to 254 °C

Recorded melting point for CNC(=O)N1CC(Sc2ccc(Cl)cc2)C1 , please?
161 to 162 °C

Hello, the source for this data is a melting point compilation (Tetko et al.; mined from patent text by program, amines drawn as free bases though some values may be those of a salt), in case you need it.
